# targetOrTestSystem: COX-2 (cyclooxygenase 2) (Homo sapiens)
# Sequence (P35354 18-604): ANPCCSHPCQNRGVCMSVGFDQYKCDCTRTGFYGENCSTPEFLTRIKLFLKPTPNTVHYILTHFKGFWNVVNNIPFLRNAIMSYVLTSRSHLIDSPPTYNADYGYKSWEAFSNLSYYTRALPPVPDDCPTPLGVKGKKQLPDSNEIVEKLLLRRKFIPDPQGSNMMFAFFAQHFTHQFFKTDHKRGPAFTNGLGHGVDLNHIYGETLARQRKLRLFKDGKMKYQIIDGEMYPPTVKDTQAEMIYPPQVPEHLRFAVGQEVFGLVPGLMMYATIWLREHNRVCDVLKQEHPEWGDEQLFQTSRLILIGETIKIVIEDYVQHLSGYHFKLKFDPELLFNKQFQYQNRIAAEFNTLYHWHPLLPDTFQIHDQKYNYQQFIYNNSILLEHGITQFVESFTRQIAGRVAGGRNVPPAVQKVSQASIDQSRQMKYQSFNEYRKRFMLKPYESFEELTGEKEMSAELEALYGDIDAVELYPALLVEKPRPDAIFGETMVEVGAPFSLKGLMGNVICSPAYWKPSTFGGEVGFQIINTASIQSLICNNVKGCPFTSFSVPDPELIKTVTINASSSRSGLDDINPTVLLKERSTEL
parameterMeasured: pIC50
// scale note: pIC50 = -log10(conc_M); give the bare number

Hello, please tell me recorded pIC50 for this one: `COc1ccc2cc([C@H](C)C(=O)O)ccc2c1`
4.89
